Each item that follows carries a reported EC50 (read off the curve).
# Experimental Target: T1, cynomolgus BLyS (full length, arginine 132 mutated to histidine) on CHO-K1 cells (cynomolgus, UniProt Q9Y275 1-285 (human entry))
# T1 construct: also called cyno BLyS; CHO-K1 cynoBLyS
# T1 chain: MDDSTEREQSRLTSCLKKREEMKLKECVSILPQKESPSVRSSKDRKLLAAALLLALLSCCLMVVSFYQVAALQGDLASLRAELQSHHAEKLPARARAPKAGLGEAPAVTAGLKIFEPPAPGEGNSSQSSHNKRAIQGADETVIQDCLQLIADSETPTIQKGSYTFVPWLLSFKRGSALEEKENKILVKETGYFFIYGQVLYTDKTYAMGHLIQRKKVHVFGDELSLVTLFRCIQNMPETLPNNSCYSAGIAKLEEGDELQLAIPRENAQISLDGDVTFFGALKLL
# Assay Explanation: flow cytometry (FACS) on CHO-K1 cynoBLyS cells, Alexa 488 secondary antibody

Examples with their reported EC50 (read off the curve) follow.
- 93C6F10D3 (antibody, V domains shown, Mouse hybridoma antibody purified on Protein G) VH: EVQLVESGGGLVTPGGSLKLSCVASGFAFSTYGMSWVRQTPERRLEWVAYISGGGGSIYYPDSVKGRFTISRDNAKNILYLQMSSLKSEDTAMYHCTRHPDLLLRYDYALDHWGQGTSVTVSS VL: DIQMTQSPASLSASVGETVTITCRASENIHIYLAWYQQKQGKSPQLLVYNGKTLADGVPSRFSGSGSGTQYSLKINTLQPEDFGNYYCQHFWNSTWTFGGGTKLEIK: ~0.1 nM
- 8E7D9C7F5 (antibody, V domains shown, Mouse hybridoma antibody purified on Protein G) VH: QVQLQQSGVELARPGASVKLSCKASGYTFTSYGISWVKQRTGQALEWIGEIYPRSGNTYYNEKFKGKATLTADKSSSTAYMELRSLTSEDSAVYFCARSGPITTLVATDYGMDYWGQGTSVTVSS VL: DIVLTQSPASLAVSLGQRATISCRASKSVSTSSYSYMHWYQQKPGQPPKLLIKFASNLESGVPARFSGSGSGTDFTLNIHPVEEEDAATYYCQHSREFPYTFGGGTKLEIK: ~0.1 nM

Moving on to the next binder.
Specify measured EC50 (read off the curve) for L1D12 (antibody, human IgG1, V domains shown, also called LID12) VH: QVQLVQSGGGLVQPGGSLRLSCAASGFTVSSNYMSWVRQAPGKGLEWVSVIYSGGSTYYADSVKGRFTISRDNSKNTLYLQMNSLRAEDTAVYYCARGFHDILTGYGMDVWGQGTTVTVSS VL: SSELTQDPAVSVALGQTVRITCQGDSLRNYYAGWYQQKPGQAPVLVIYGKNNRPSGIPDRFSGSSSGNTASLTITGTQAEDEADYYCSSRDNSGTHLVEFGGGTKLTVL . ~0.2 nM
